These measurements were taken from PubChem BioAssay (Tox21).

# experiment.notes: qHTS RealTime-Glo MT Cell Viability Assay in HepG2 cells - 16 hour (AID 1224885); note: % is set by controls: 0 for no effect and ±100 for the full control effect; nearly all actives have a fitted effect of over 50% in size
# assay.setup: RealTime-Glo luminescence; series mostly up to 76.8 µM
Inconclusive results are not listed. Calls of active or inactive are those of the source. Calls come from the whole dose curve; as a rule, active = well fitted cell-killing curve with a large enough effect in the repeat runs; inconclusive = weak or mixed curves; inactive = flat fitted curve, though single readings scatter.
readout.name: activity change, negative = cytotoxic

Known results for molecules:
{"columns": ["molecule", "result"],
 "data": [
  ["OCC1CCC(CO)CC1 (stereo not drawn)", "inactive"],
  ["CC1(C)CC(OC(=O)CCCCCCCCC(=O)OC2CC(C)(C)NC(C)(C)C2)CC(C)(C)N1", "-0.753% [at 15.8 µM] (inactive)"],
  ["CNCCS(=O)(=O)O", "inactive"],
  ["CC(=O)CCC1=C(C)CCCC1(C)C", "inactive"],
  ["O=C[O][Al]([O]C=O)[O]C=O", "inactive"]
]}

Fill in activity change, negative = cytotoxic for each of the 7 molecules listed.
1. [O]=[Mo](=[O])=[O]
2. CC(C)COC(=O)c1ccccc1
3. CO[Si](CCCn1c(=O)n(CCC[Si](OC)(OC)OC)c(=O)n(CCC[Si](OC)(OC)OC)c1=O)(OC)OC
4. CCCCCCC1(C)CCC(=O)O1 (stereo not drawn)
5. CCCCOC(=O)C(C)O (stereo not drawn)
6. COc1cc(OC)nc(O[C@H](C(=O)O)C(OC)(c2ccccc2)c2ccccc2)n1
7. [O-][n+]1cccc(/C(Cl)=N/OC[C@@H](O)CN2CCCCC2)c1

Result string:
1: 6.22% [at 15.8 µM] (inactive); 2: inactive; 3: inactive; 4: inactive; 5: inactive; 6: inactive; 7: inactive

Query string: Value lookup for activity change, negative = cytotoxic; key = `O=C(NCN1CCOCC1)c1cnccn1`
Result string: inactive

---

# experiment.notes: qHTS assay to identify small molecule agonists of the hypoxia (HIF-1) signaling pathway - cell viability counter screen (AID 1224844); note: % is set by controls: 0 for no effect and ±100 for the full control effect; nearly all actives have a fitted effect of over 50% in size
# assay.setup: HRE-bla ME-180 viability, CellTiter-Glo luminescence, 17 h; series mostly up to 76.8 µM
Inconclusive results are not listed. Activity calls are given as the source filed them. The call rests on the fitted dose curve.
readout.name: activity change, negative = cytotoxicity

Known results for molecules:
{"columns": ["molecule", "activity change, negative = cytotoxicity"],
 "data": [
  ["C=CCCCC", "inactive"],
  ["COc1cc2c(cc1OC)CN(C(=O)[C@H](C)N[C@@H](CCc1ccccc1)C(=O)O)[C@H](C(=O)O)C2", "inactive"],
  ["C/C=C(\\C)C(C)=O", "inactive"],
  ["Cn1nnc2c(C(N)=O)ncn2c1=O", "inactive"],
  ["CC(C)(CO)C(O)C(=O)NCCCO (stereo not drawn)", "inactive"]
]}

Fill in activity change, negative = cytotoxicity for each of the 8 molecules listed.
1. CC(=O)CCC1=C(C)CCCC1(C)C
2. OCC(O)CN1CCN(c2ccccc2)CC1 (stereo not drawn)
3. O=C(CN1CCNCC1)NC1CCCCC1
4. O/N=C/C=N/O
5. OCCN1CCOCC1
6. CC(=O)C1C(=O)C=C(C)OC1=O (stereo not drawn)
7. COC(=O)c1ccccc1C(=O)O
8. O=C(O)CNC(=O)CNC(=O)CNC(=O)CSC(=O)c1ccccc1

Result string:
1. inactive
2. inactive
3. inactive
4. inactive
5. inactive
6. inactive
7. inactive
8. inactive

Fill in activity change, negative = cytotoxicity for each of the 7 molecules listed.
1. CCC/C=C(\C=O)CC
2. CCOC(CN1CCN(CC(C)C(=O)c2ccccc2)CC1)c1ccccc1 (stereo not drawn)
3. CCCCCCCCCCCCCCCCCCOCCO
4. CC1=NN(c2ccc(S(=O)(=O)O)cc2)C(=O)C1
5. CO[Si](CCCn1c(=O)n(CCC[Si](OC)(OC)OC)c(=O)n(CCC[Si](OC)(OC)OC)c1=O)(OC)OC
6. CCCCOCC(C)O (stereo not drawn)
7. C#CCN[C@@H]1CCc2ccccc21

Result string:
inactive
0.0048% [at 15.8 µM] (inactive)
16.8% [at 15.8 µM] (inactive)
inactive
inactive
inactive
inactive

---

# experiment.notes: qHTS assay to identify small molecule phospholipidosis (PLD) inducers (AID 1259344); note: % is set by controls: 0 for no effect and ±100 for the full control effect
# assay.setup: HepG2 phospholipidosis, LipidTOX Red imaging, 24 h; series mostly up to 38.3 µM
Inconclusive results are not listed. The source made the active and inactive calls. Calls come from the whole dose curve; as a rule, active = well fitted activation curve with a large enough effect; inconclusive = small, poorly fitted or top-dose-only effect; inactive = flat fitted curve, though single readings scatter. Positions of bridges follow the written chain, without caps; N, C: chain ends. Non-standard residues stand in square brackets, D forms with d. Residues, ends and D or L forms follow the SMILES beside them. hArg = N=C(N)NCCCC[C@H](N)C(=O)O; Mpa = O=C(O)CCS
readout.name: PLD induction

{"columns": ["compound", "result"],
 "data": [
  ["CN(C)CC/C=C1/c2ccccc2COc2ccc(CC(=O)O)cc21", "inactive"],
  ["CC(C)(C)NC[C@H](O)COc1cccc2c1CCCC2=O", "inactive"],
  ["O=C(O)CNC(=O)CNC(=O)CNC(=O)CSC(=O)c1ccccc1", "1.13% [at 7.66 µM] (inactive)"],
  ["O=C(CN1CCNCC1)NC1CCCCC1", "inactive"],
  ["NC(=O)[C@@H]1CSSCCC(=O)N[C@@H](CCCCN=C(N)N)C(=O)NCC(=O)N[C@@H](CC(=O)O)C(=O)N[C@@H](Cc2c[nH]c3ccccc23)C(=O)N2CCC[C@H]2C(=O)N1 ([Mpa][hArg]GDWPC-NH2; disulfide 1-7)", "inactive"]
]}

Fill in PLD induction for each of the 8 compounds listed.
1. CCCC(=O)Nc1ccc(OCC(O)CNC(C)C)c(C(C)=O)c1 (stereo unspecified)
2. NCc1ccc(S(N)(=O)=O)cc1
3. CC1(C)O[C@H]2CC(=O)OC[C@]23[C@H]2CC[C@@]4(C)[C@H](c5ccoc5)OC(=O)[C@H]5O[C@]54[C@]2(C)C(=O)C[C@@H]13
4. O=C(CCCCC(=O)Nc1c(I)cc(I)c(C(=O)O)c1I)Nc1c(I)cc(I)c(C(=O)O)c1I
5. Nc1nc(-c2ccccc2)c(Br)c(=O)[nH]1
6. OC[C@H]1O[C@@H](O[C@@H]2[C@@H](CO)O[C@](O)(CO)[C@H]2O)[C@H](O)[C@@H](O)[C@H]1O
7. N[C@@H](Cc1ccc(O)cc1)C(=O)O
8. CC(=O)OCC(=O)Nc1cc(C#N)cc(NC(=O)COC(C)=O)c1Cl

Result string:
inactive
inactive
inactive
inactive
inactive
inactive
inactive
-3.87% [at 7.66 µM] (inactive)

Fill in PLD induction for each of the 3 compounds listed.
1. CC1=C(C(=O)O)N2C(=O)[C@@H](NC(=O)[C@H](N)C3=CCC=CC3)[C@H]2SC1
2. O=C(O)CSCC(=O)NC1CCSC1=O (stereo unspecified)
3. Cc1ncc([N+](=O)[O-])n1CC(C)O (stereo unspecified)

Result string:
0.229% [at 7.66 µM] (inactive)
5.58% [at 7.66 µM] (inactive)
inactive

Fill in PLD induction for each of the 4 compounds listed.
1. CCNC(=O)NCc1cccc(Cl)c1
2. CC(=O)Nc1ccc(OC(=O)c2ccccc2OC(C)=O)cc1
3. CC(=O)O[C@@H]1CC2CCC1(C)C2(C)C (stereo partly specified)
4. COc1c2occc2c(OC)c2c(=O)cc(C)oc12

Result string:
inactive
inactive
inactive
inactive

Query string: Value lookup for PLD induction; key = CC1c2ccccc2CN1NC(=O)c1ccc(Cl)c(S(N)(=O)=O)c1 (stereo unspecified)
Result string: -1.83% [at 1.53 µM] (inactive)

---

# test.target: Cytochrome P450 1A2 (Homo sapiens) (UniProt P05177)
# Sequence (P05177 whole entry, looked up): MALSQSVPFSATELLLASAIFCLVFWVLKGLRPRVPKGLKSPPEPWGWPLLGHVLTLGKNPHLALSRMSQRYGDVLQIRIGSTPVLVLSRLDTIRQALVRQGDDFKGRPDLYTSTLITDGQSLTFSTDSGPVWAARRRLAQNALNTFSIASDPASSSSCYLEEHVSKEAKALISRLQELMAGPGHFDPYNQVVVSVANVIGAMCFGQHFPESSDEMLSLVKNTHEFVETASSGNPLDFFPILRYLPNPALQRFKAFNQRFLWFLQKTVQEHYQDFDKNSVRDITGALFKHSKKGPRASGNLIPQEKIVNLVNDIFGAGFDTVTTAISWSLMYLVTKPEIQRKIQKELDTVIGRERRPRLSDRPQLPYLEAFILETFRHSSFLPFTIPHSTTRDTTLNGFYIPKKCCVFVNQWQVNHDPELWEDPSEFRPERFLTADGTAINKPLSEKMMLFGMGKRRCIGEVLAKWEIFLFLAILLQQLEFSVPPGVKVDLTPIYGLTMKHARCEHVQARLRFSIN
# experiment.notes: Cytochrome P450 Family 1 Subfamily A Member 2 (CYP1A2) small molecule antagonists: luciferase reporter qHTS assay (AID 1671199); note: nearly all actives have a fitted effect of over 50% in size
# assay.setup: P450-Glo CYP1A2 enzyme, luciferin luminescence, 1 h; series mostly up to 115 µM
Results filed as inconclusive are left out. The source made the active and inactive calls. Calls come from the whole dose curve; as a rule, active = well fitted inhibition curve with a large enough effect in the repeat runs; inconclusive = weak or mixed curves; inactive = no such curve, though single readings can be large or run the other way.
Would you mind answering with one of these outcomes? y for active, n for inactive

Worked examples, 5 compounds total:
{"columns": ["compound", "discrete.label"],
 "data": [
  ["C=CCOC(=O)CCCCCC", "n"],
  ["CCCC(=O)OCCC(C)CCC=C(C)C (stereo not drawn)", "y"],
  ["COc1nc(N)nc2nc[nH]c12", "y"],
  ["O=NN(CCCl)C(=O)NC1CCCCC1", "n"],
  ["CO[C@@]1(NC(=O)Cc2cccs2)C(=O)N2C(C(=O)O)=C(COC(N)=O)CS[C@@H]21", "n"]
]}

Query string: Which outcome did this test record for the compound C=C(C)C1CC=C(C)C(=O)C1 (stereo not drawn) ?
Result string: n

Query string: Which outcome did this test record for the compound `CN(C)C(C)(C)CO` ?
Result string: n

Query string: Which outcome did this test record for the compound `c1ccc2c(CC3=NCCN3)cccc2c1` ?
Result string: n

Query string: Which outcome did this test record for the compound `Cc1ccc2c(c1)C(=O)c1ccccc1C2=O` ?
Result string: y

Query string: Which outcome did this test record for the compound `COC(=O)/C=C\C(=O)O` ?
Result string: n

Query string: Which outcome did this test record for the compound `Cc1cc(C)c(C(=O)O)c(C)c1` ?
Result string: y

Query string: Which outcome did this test record for the compound `O=C(CN1CCNCC1)NC1CCCCC1` ?
Result string: n

Query string: Which outcome did this test record for the compound `C[C@@H](O)C(=O)O` ?
Result string: n
